For each entry below, report its pIC50 value.
# assayed_system: PAK4 (Homo sapiens)
# Sequence (O96013 whole entry): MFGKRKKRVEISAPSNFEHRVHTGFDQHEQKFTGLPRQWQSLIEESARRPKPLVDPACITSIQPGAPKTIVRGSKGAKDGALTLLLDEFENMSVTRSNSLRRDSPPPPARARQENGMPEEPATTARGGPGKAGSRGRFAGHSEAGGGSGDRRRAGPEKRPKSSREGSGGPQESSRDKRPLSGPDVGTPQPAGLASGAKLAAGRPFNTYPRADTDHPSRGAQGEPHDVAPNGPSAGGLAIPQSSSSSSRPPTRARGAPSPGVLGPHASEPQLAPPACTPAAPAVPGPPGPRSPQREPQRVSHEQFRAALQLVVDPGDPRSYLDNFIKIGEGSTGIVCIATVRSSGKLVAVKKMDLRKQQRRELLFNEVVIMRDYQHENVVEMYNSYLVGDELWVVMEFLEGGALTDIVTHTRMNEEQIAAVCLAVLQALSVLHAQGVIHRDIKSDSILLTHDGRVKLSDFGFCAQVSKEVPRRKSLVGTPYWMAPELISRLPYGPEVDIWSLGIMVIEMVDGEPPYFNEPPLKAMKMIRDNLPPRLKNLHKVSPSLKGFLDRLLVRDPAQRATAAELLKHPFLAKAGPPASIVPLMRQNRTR
pIC50: −log10 of the molar value.

See these solved cases before continuing.
Task: Returns the measured pIC50 for the input compound. Input: CCn1c(=O)c(-c2ccc(-c3cccnc3)cc2Cl)cc2cnc(Nc3ccc(C4CCNCC4)c(F)c3)nc21
Result: 5.30 to 6.30

Task: Field entry: CCn1c(=O)c(-c2ccc(-c3cncnc3)cc2Cl)cc2cnc(Nc3ccc(C4CN(C)CCO4)cc3)nc21 (centres unmarked)
Result: ≤ 5.30

Task: What about CCn1c(=O)c(-c2ccc(-c3cnn(C)c3)cc2)cc2cnc(Nc3ccc(N4CCN(C)CC4)cc3)nc21 ?
Result: ≤ 5.30

Task: Moving on to CCn1c(=O)c(-c2ccc(-c3cn[nH]c3)cc2Cl)cc2cnc(Nc3ccc(N4CCN(C)CC4)cc3)nc21
Result: ≤ 5.30

Task: What would you report for CCn1c(=O)c(-c2ccc(-c3cnc(C)s3)cc2Cl)cc2cnc(Nc3ccc(C4CCNC4)cc3)nc21 (centres unmarked) ?
Result: 5.30 to 6.30

Look up pIC50 for the entries below, preserving their order.
1. CCn1c(=O)c(-c2ccc(-c3ccc(C)nc3F)cc2Cl)cc2cnc(Nc3ccc(C4CCN(C)CC4)c(F)c3)nc21
2. CNC(=O)c1cc(-c2ccc(-c3cc4cnc(Nc5ccc(C6CCNCC6)cc5)nc4n(C)c3=O)c(Cl)c2)ccn1
3. CCN1CCC(c2ccc(Nc3ncc4cc(-c5ccc(-c6ccc(C)nc6)cc5Cl)c(=O)n(CC)c4n3)cc2F)CC1

Result:
1: 5.30 to 6.30; 2: 5.30 to 6.30; 3: 5.30 to 6.30

* * *

Quick record of IC50 values for PAK1 (Homo sapiens, UniProt Q13153).

Task: Field request: IC50 | item: CC(=O)Nc1ncccc1-c1ccc(Cl)c(-c2cc3cnc(Nc4ccc(C5CCN(C)CC5)cc4)nc3n(C)c2=O)c1
Result: 50 to 500 nM

Kindly give each listed record's IC50.
1. Cc1nc(-c2cc(Cl)c(-c3cc4cnc(Nc5ccc(C6CCN(C)CC6)cc5)nc4n(C)c3=O)cc2F)no1
2. CCn1c(=O)c(-c2ccc(-c3noc(C)n3)cc2Cl)cc2cnc(Nc3ccc(N4CCNCC4)cc3)nc21
3. CCn1c(=O)c(-c2ccc(-c3noc(C)n3)cc2Cl)cc2cnc(Nc3ccc(N4CCNCC4)c(F)c3)nc21
4. CCn1c(=O)c(-c2ccc(-c3ccnc(C(=O)NC)c3)cc2Cl)cc2cnc(Nc3ccc(C4CCNCC4)cc3)nc21
5. CCn1c(=O)c(-c2ccc(-c3noc(C)n3)cc2)cc2cnc(Nc3ccc(C4CCN(C)CC4)cc3)nc21

Result:
1. < 50 nM
2. < 50 nM
3. < 50 nM
4. 50 to 500 nM
5. 50 to 500 nM

* * *

# assayed_system: PAK3 (Homo sapiens)
# Sequence (O75914 whole entry): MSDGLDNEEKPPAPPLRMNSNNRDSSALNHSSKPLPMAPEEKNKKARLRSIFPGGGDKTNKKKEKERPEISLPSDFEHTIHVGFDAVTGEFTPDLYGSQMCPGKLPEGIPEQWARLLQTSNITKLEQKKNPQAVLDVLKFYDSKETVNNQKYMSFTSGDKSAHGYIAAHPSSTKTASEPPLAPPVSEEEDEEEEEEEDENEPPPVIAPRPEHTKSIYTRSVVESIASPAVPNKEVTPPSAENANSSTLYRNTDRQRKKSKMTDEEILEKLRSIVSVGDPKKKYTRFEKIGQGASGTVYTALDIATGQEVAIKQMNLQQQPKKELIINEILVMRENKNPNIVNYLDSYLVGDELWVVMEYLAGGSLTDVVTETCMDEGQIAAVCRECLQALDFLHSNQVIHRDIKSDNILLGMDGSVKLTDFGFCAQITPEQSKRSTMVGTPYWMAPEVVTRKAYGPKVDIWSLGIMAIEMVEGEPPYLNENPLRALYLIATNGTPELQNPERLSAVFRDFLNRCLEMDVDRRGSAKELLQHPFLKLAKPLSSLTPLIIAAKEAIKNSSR
Assignment: determine reported IC50 for the given compounds.

Before answering, review these 10 worked examples.
Task: Reported IC50 for CCn1c(=O)c(-c2ccc(-c3noc(C)n3)cc2)cc2cnc(Nc3ccc(C4CCN(C)CC4)cc3)nc21 : what is it?
Result: 50 to 500 nM

Task: Can you check CCn1c(=O)c(-c2ccc(-c3ccnc(C)c3)cc2Cl)cc2cnc(Nc3ccc(N4CCN(C)CC4)cc3)nc21 next?
Result: < 50 nM

Task: Also CNC(=O)c1cc(-c2ccc(-c3cc4cnc(Nc5ccc(C6CCNCC6)cc5)nc4n(C)c3=O)c(Cl)c2)ccn1 ?
Result: 50 to 500 nM

Task: Now the compound CCn1c(=O)c(-c2ccc(-c3cccnc3C)cc2Cl)cc2cnc(Nc3ccc(C4CCNCC4)cc3)nc21
Result: 50 to 500 nM

Task: Also need Cc1nc(-c2cc(Cl)c(-c3cc4cnc(Nc5ccc(C6CCN(C)CC6)cc5)nc4n(C)c3=O)cc2F)no1 , thanks.
Result: < 50 nM

Task: Same for CCN1CCC(c2ccc(Nc3ncc4cc(-c5ccc(-c6cnc(C)s6)cc5Cl)c(=O)n(CC)c4n3)cc2F)CC1
Result: < 50 nM

Task: Please give the result for CCN1CCC(c2ccc(Nc3ncc4cc(-c5ccc(-c6ccc(F)nc6C)cc5Cl)c(=O)n(CC)c4n3)cc2)CC1 too.
Result: 50 to 500 nM

Task: Next record, please: CCn1c(=O)c(-c2ccc(-c3cccnc3F)cc2Cl)cc2cnc(Nc3ccc(C4CCN(C)CC4)c(F)c3)nc21
Result: < 50 nM

Task: Query CCn1c(=O)c(-c2ccc(-c3nccnc3C)cc2C)cc2cnc(Nc3ccc(C4CCN(C)CC4)cc3)nc21 next
Result: < 50 nM

Task: Another compound: CCn1c(=O)c(-c2ccc(-c3cccnc3)cc2Cl)cc2cnc(Nc3ccc(N4CCN(C(C)C)CC4)cc3)nc21 [drawing 655]
Result: < 50 nM

For each of the items listed, what is its IC50?
1. CCn1c(=O)c(-c2ccc(-c3ccc(F)nc3C)cc2Cl)cc2cnc(Nc3ccc(C4CCNCC4)cc3)nc21
2. CCN1CCN(c2ccc(Nc3ncc4cc(-c5ccc(-c6cncnc6)cc5Cl)c(=O)n(CC)c4n3)cc2F)CC1
3. CCn1c(=O)c(-c2ccc(-c3cccnc3F)cc2Cl)cc2cnc(Nc3ccc(C4CCN(C(C)C)CC4)cc3)nc21
4. CCn1c(=O)c(-c2ccc(-c3cccnc3F)cc2Cl)cc2cnc(Nc3ccc(C4=CCNCC4)cc3)nc21

Result:
1: 50 to 500 nM; 2: < 50 nM; 3: < 50 nM; 4: < 50 nM

Required: IC50, one value per compound below.
1. CCn1c(=O)c(-c2ccc(-c3ncccn3)cc2Cl)cc2cnc(Nc3ccc(N4CCN(C)CC4)cc3)nc21
2. CCn1c(=O)c(-c2ccc(-c3cccnc3C)cc2Cl)cc2cnc(Nc3ccc(CCN4CCCC4)cc3)nc21
3. CCn1c(=O)c(-c2cc(C)c(-c3cccnc3)cc2Cl)cc2cnc(Nc3ccc(C4CCN(C)CC4)cc3)nc21

Result:
1. < 50 nM
2. 50 to 500 nM
3. < 50 nM

Below are some compounds; for each one, tell me its IC50.
1. CCn1c(=O)c(-c2ccc(-c3cccnc3)cc2Cl)cc2cnc(Nc3ccc(N4CCN(C(C)C)CC4)cc3)nc21 [drawing 650]
2. CCn1c(=O)c(-c2ccc(-c3cccs3)cc2)cc2cnc(Nc3ccc(N4CCN(C)CC4)cc3)nc21
3. CCn1c(=O)c(-c2ccc(-c3nccs3)cc2Cl)cc2cnc(Nc3ccc(N4CCN(C)CC4)cc3)nc21

Result:
1: < 50 nM; 2: > 5000 nM; 3: < 50 nM

* * *

Target or system PAK1 (Homo sapiens, UniProt Q13153): recorded pIC50 listed per item.
pIC50: −log10 of the molar value.

Task: # input compound: CCn1c(=O)c(-c2ccc(-c3ccnc(C(=O)NC)c3)cc2Cl)cc2cnc(Nc3ccc(C4CCN(C)CC4)cc3)nc21 ; wanted: its pIC50
Result: > 7.30

For every item in the list below, what is its measured pIC50?
1. CCn1c(=O)c(-c2ccc(-c3cnc(C)s3)cc2Cl)cc2cnc(Nc3ccc(C4CCNC4)cc3)nc21 (stereo not shown)
2. CCn1c(=O)c(-c2ccc(-c3ccccc3F)cc2Cl)cc2cnc(Nc3ccc(C4CCN(C)CC4)cc3)nc21

Result:
1. > 7.30
2. > 7.30

State the recorded pIC50 for every item in the following list.
1. Cc1ncccc1-c1ccc(-c2cc3cnc(Nc4ccc(C5CCN(C)CC5)cc4)nc3n(C)c2=O)c(Cl)c1
2. CCn1c(=O)c(-c2ccc(-c3noc(C)n3)cc2Cl)cc2cnc(Nc3ccc(C4CCNCC4)c(F)c3)nc21
3. CCn1c(=O)c(-c2ccc(-c3ncc(C)s3)cc2C)cc2cnc(Nc3ccc(C4CCN(C)CC4)cc3)nc21
4. CCOC(=O)c1cncnc1-c1ccc(-c2cc3cnc(Nc4ccc(C5CCN(C)CC5)cc4)nc3n(CC)c2=O)c(Cl)c1
5. CCn1c(=O)c(-c2ccc(-c3ccc(C)s3)cc2Cl)cc2cnc(Nc3ccc(N4CCN(C)CC4)cc3)nc21
6. CCn1c(=O)c(-c2ccc(-c3cccnc3)cc2Cl)cc2cnc(Nc3ccc(N4CCN(C(C)C)CC4)cc3)nc21 [drawing 655]
7. CCn1c(=O)c(-c2ccc(C3CC3)cc2C2CC2)cc2cnc(Nc3ccc(N4CCN(C)CC4)cc3)nc21

Result:
> 7.30
> 7.30
> 7.30
5.30 to 6.30
> 7.30
> 7.30
5.30 to 6.30

Count: 3. Required value per item: pIC50.
1. CCn1c(=O)c(-c2ccc(-c3cccnc3F)cc2Cl)cc2cnc(Nc3ccc(CCN(C)C)cc3)nc21
2. CCn1c(=O)c(-c2ccc(-c3cncs3)cc2Cl)cc2cnc(Nc3ccc(N4CCN(C(C)C)CC4)c(F)c3)nc21
3. CCn1c(=O)c(-c2ccc(-c3cncnc3)cc2Cl)cc2cnc(Nc3ccc(N4CCN(C(C)C)CC4)c(F)c3)nc21

Result:
["> 7.30", "> 7.30", "> 7.30"]
